# pKi annotations
Biological target: Human β2 adrenoceptor (Homo sapiens, UniProt P07550)
Construct: purchased Perkin Elmer
Sequence (P07550 whole entry): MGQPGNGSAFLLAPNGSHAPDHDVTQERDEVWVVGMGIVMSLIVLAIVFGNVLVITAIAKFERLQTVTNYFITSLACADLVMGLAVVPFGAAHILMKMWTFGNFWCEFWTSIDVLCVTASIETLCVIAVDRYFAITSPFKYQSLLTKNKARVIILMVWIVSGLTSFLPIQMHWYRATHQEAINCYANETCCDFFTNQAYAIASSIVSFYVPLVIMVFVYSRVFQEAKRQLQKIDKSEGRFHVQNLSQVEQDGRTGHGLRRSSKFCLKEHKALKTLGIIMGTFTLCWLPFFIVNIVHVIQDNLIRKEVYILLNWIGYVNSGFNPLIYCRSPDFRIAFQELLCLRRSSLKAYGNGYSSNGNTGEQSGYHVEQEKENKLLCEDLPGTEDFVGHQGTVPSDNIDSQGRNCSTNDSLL
Assay: β2 adrenoceptor radioligand binding assay
Conditions: human β2 adrenoceptor membranes, 125-I cyanopindolol; Ki from IC50 by Cheng and Prusoff; read-out: B2 binding affinity (Ki class)
pKi: −log10 of the molar value.

Below, each entry is followed by its recorded pKi result.
O=C(NCCCCNC[C@H](O)c1ccc(O)c2[nH]c(=O)ccc12)c1ccc(CNC2(C(=O)OC3CCN(Cc4ccccc4)CC3)CCc3ccccc32)s1 (single isomer, unassigned; stereoisomer 1) [Compound 24]; < 8.00
O=C(NCCCCNC[C@H](O)c1ccc(O)c2[nH]c(=O)ccc12)c1ccc(CNC2(C(=O)OCC3CCN(Cc4ccccc4)CC3)CCc3ccccc32)s1 (stereo partly drawn) [Compound 16]; 8.00 to 9.00
O=C(NC1(C(=O)O[C@H]2CN3CCC2CC3)CCc2ccccc21)c1cccc(OCCCCNC[C@H](O)c2ccc(O)c3[nH]c(=O)ccc23)c1 (stereo partly drawn); 8.00 to 9.00
O=C(NC1(C(=O)OCC2CCN(Cc3ccco3)CC2)CCc2ccccc21)c1cccc(OCCCCCCNC[C@H](O)c2ccc(O)c3[nH]c(=O)ccc23)c1 (stereo partly drawn); < 8.00
O=C(NCCCCNC[C@H](O)c1ccc(O)c2[nH]c(=O)ccc12)c1ccc(CNC2(C(=O)O[C@H]3CN4CCC3CC4)Cc3ccccc3C2)s1; 8.00 to 9.00
O=C(NCCCCNC[C@H](O)c1ccc(O)c2[nH]c(=O)ccc12)c1ccc(CNC2(C(=O)O[C@@H]3CCN(Cc4ccccc4)C3)CCc3ccccc32)s1 (single isomer, unassigned; stereoisomer 2) [Compound 28]; 8.00 to 9.00
O=C(NCCCCNC[C@H](O)c1ccc(O)c2[nH]c(=O)ccc12)c1ccc(CNC2(C(=O)O[C@H]3CN4CCC3CC4)CCc3ccccc32)s1 (stereo partly drawn); > 9.00
O=C(NCCCCNC[C@H](O)c1ccc(O)c2[nH]c(=O)ccc12)c1cccc(CNC2(C(=O)O[C@H]3CN4CCC3CC4)CCc3ccccc32)c1 (stereo partly drawn); > 9.00
O=C(O[C@H]1CN2CCC1CC2)C1(NCc2cccc(OCc3cccc(OCCCCNC[C@H](O)c4ccc(O)c5[nH]c(=O)ccc45)c3)c2)CCc2ccccc21 (stereo partly drawn); > 9.00
CC(C)N1CCC(COC(=O)C2(NC(=O)c3cccc(OCCCCCCNC[C@H](O)c4ccc(O)c5[nH]c(=O)ccc45)c3)CCc3ccccc32)CC1 (stereo partly drawn); < 8.00

pKi value, target or system Human β2 adrenoceptor (Homo sapiens, UniProt P07550), for O=C(NCCCCNC[C@H](O)c1ccc(O)c2[nH]c(=O)ccc12)c1ccc(CNC2(C(=O)O[C@@H]3CCN(Cc4ccccc4)C3)CCc3ccccc32)s1 (single isomer, unassigned; stereoisomer 1) [Compound 26] : < 8.00

pKi value, target or system Human β2 adrenoceptor (Homo sapiens, UniProt P07550), for O=C(NC1(C(=O)O[C@H]2CN3CCC2CC3)CCc2ccccc21)c1cccc(COCCCCNC[C@H](O)c2ccc(O)c3[nH]c(=O)ccc23)c1 (stereo partly drawn) : < 8.00

pKi value, target or system Human β2 adrenoceptor (Homo sapiens, UniProt P07550), for O=C(NCCCCNC[C@H](O)c1ccc(O)c2[nH]c(=O)ccc12)c1cccc(C(=O)NC2(C(=O)O[C@H]3CN4CCC3CC4)CCc3ccccc32)c1 (stereo partly drawn) : < 8.00

pKi value, target or system Human β2 adrenoceptor (Homo sapiens, UniProt P07550), for O=C(O[C@H]1CN2CCC1CC2)C1(NCc2cccc(OCc3ccc(CNC[C@H](O)c4ccc(O)c5[nH]c(=O)ccc45)cc3)c2)CCc2ccccc21 (stereo partly drawn) : > 9.00

pKi value, target or system Human β2 adrenoceptor (Homo sapiens, UniProt P07550), for O=C(NC1(C(=O)O[C@H]2CN3CCC2CC3)Cc2ccccc2C1)c1cccc(OCCCCCNC[C@H](O)c2ccc(O)c3[nH]c(=O)ccc23)c1 : 8.00 to 9.00

pKi value, target or system Human β2 adrenoceptor (Homo sapiens, UniProt P07550), for O=C(NCCCCNC[C@H](O)c1ccc(O)c2[nH]c(=O)ccc12)c1ccc(CNC2(C(=O)OCC3CCN(Cc4ccccc4)CC3)CCc3ccccc32)s1 (single isomer, unassigned; stereoisomer 2) [Compound 23] : 8.00 to 9.00

pKi value, target or system Human β2 adrenoceptor (Homo sapiens, UniProt P07550), for Cc1cccc2c1CCC2(NC(=O)c1cccc(OCCCCCNC[C@H](O)c2ccc(O)c3[nH]c(=O)ccc23)c1)C(=O)O[C@H]1CN2CCC1CC2 (single isomer, unassigned; diastereoisomer 2) [Compound 5B] : > 9.00

pKi value, target or system Human β2 adrenoceptor (Homo sapiens, UniProt P07550), for O=C(NCCCCNC[C@H](O)c1ccc(O)c2[nH]c(=O)ccc12)c1ccc(CNC2(C(=O)O[C@@H]3CCCN(Cc4ccccc4)C3)CCc3ccccc32)s1 (single isomer, unassigned; stereoisomer 1) : < 8.00

pKi value, target or system Human β2 adrenoceptor (Homo sapiens, UniProt P07550), for O=C(NC1(C(=O)OCC2CCN(Cc3cccc(O)c3)CC2)CCc2ccccc21)c1cccc(OCCCCCCNC[C@H](O)c2ccc(O)c3[nH]c(=O)ccc23)c1 (stereo partly drawn) : < 8.00

pKi value, target or system Human β2 adrenoceptor (Homo sapiens, UniProt P07550), for O=C(NC1(C(=O)O[C@H]2CN3CCC2CC3)CCc2ccccc21)c1ccc(OCc2ccc(CNC[C@H](O)c3ccc(O)c4[nH]c(=O)ccc34)cc2)cc1 (stereo partly drawn) : < 8.00

pKi value, target or system Human β2 adrenoceptor (Homo sapiens, UniProt P07550), for O=C(NC1(C(=O)OCC2CCN(Cc3ccccc3)CC2)CCc2ccccc21)c1cccc(OCCCCCCNC[C@H](O)c2ccc(O)c3[nH]c(=O)ccc23)c1 (stereo partly drawn) : < 8.00
